system under test: PfCDPK4 (Plasmodium falciparum (isolate 3D7))
assay remarks: biochemical
measurement context: read-out: PfCDPK4 (% inhibition @ 3 uM)
Binary call on inhibition at 3 µM: satisfied from 50% upward, not satisfied beneath that.

# test smiles, label class
rows = [
    ("CC(C)(C)n1nc(-c2ccc3oc(-c4ccccc4)nc3c2)c2c(N)ncnc21", "not satisfied"),
    ("CCN1CCC(n2nc(Cc3cccc4ccccc34)c3c(N)ncnc32)CC1", "not satisfied"),
    ("Nc1ncnc2c1c(-c1ccc(-c3ccccc3)c(F)c1)nn2CC1CCNCC1", "not satisfied"),
    ("C=CCOc1ccc2cc(-c3nn(C(C)C)c4ncnc(N)c34)ccc2c1", "satisfied"),
    ("COc1ccc2cc(-c3nc(C(C)(C)C)n4ccnc(N)c34)ccc2c1", "satisfied"),
]

Determine whether this molecule has inhibition at 3 µM no lower than 50%: `O=C(c1ccccc1)c1ccc2nc(NC(=O)[C@@H]3CCCN3)[nH]c2c1` satisfied

Determine whether this molecule has inhibition at 3 µM no lower than 50%: `CC(C)(C)n1nc(Br)c2c(N)ncnc21` not satisfied

Determine whether this molecule has inhibition at 3 µM no lower than 50%: `CC(C)(C)n1nc(-c2ccc(-c3ccccc3)cc2)c2c(N)ncnc21` not satisfied
